- Experiment: small-molecule binders of probe aLefty1, primary screen, biochemical, small-molecule microarray, 635/667 nm fluorescence (AID 1153);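 note: score merges spot fluorescence with signal-to-noise ratio from the scanned slide images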
- Run conditions: higher = more signal
Tag: Fulfilled if measured composite z-score is not below 0.3, Not fulfilled if it is.

# Compound, Group
records = [
    ("O=C1NC(=O)C2C1C=CC(C(O)C=Cc1ccc([N+](=O)[O-])cc1)N2Nc1ccccn1 (configuration not stated)", "Not fulfilled"),
    ("C=CCNC(=O)[C@H]1[C@@H]2C(=O)O[C@@H](c3ccccc3)[C@@H](c3ccccc3)N2[C@@H](c2ccccc2OCCO)[C@]12C(=O)N(C(=O)OCCOC)c1ccc(C#CCNC(N)=O)cc12", "Not fulfilled"),
    ("CCOC(=O)C1=CC[C@@H](c2ccc(-c3ccc(OCc4ccccc4)cc3)c(OC)c2)N(S(=O)(=O)c2ccc(C)cc2)[C@H]1c1ccccc1", "Fulfilled"),
    ("CC(C)[Si](OCC[C@H]1O[C@]2(C(=O)N(Cc3ccccc3)c3ccccc32)[C@@H](C)[C@@H]1[Si](C)(C)O)(C(C)C)C(C)C", "Not fulfilled"),
    ("C=C(CCCC)/C(=C/C[C@@H](OC(=O)c1ccncc1)c1ccc(CO)o1)c1cnc2ccccc2c1", "Fulfilled"),
    ("C=C(CCCC)/C(=C/C[C@@H](OC(=O)c1ccncc1)c1cccc(OCCO)c1)c1cc(C(=O)OC)ccc1OC", "Not fulfilled"),
    ("[N-]=[N+]=NCc1ccccc1C[C@@]1(C(=O)O)N=C(c2ccc(OCCCO)cc2)O[C@@H]1c1ccccc1N=[N+]=[N-]", "Fulfilled"),
]

---

- Test system: Human papillomavirus type 1a E7 protein (residues 1-88)
- Experiment: HPV1a E7 small-molecule binders, primary screen, biochemical, small-molecule microarray, residues 1-88, 635 nm (AID 1129)
- Run conditions: small-molecule microarray binding, fluorescence 635 nm; higher = more signal
Below, each entry is listed with its recorded composite z-score.
Attribute measured: composite z-score

# Compound, Attribute measured, Observed
measured = [
    ("CO[C@H]1COC(=O)[C@@H](C)NC(=O)CC=C[C@@H](C)[C@H](OC)COC(=O)CC=C[C@@H]1C", "composite z-score", -1.46),
    ("COC(=O)C1=CC(c2ccc(CO)cc2)=CC(C2CC2)N(Cc2sc3ccccc3c2Cl)C=C1C(=O)OC (configuration not stated)", "composite z-score", 1.19),
    ("CCN1C(C)=C(C(=O)OC)[C@@H](c2ccccc2)N2C(=O)[C@@]3(C(=O)OC)O[C@@]12[C@@H]1C(=O)N(c2ccccc2)C(=O)[C@@H]13", "composite z-score", 0.678),
    ("C=C(CCCC)/C(=C/C[C@@H](OC(=O)c1ccncc1)c1cccc(OCCO)c1)c1cc(C(=O)OC)ccc1OC", "composite z-score", 1.17),
    ("O=C(CS)NCCCCCNC(=O)[C@H]1C[C@H]2C(=O)N3CCC[C@H]3C(=O)N2[C@H]1c1ccc(O)cc1", "composite z-score", -1.25),
    ("N#Cc1ccc(NN2C(C(O)c3ccc(I)cc3)C=CC3C(=O)N(c4ccccc4)C(=O)C32)cc1 (configuration not stated)", "composite z-score", 1.25),
    ("COC(=O)[C@@]1(Cc2ccc(OC)cc2)[C@H]2c3cc(C(=O)N(C)C)n(Cc4ccc(C)c(F)c4F)c3C[C@H]2CN1C(=O)c1ccccc1", "composite z-score", 0.713),
]

---

- Tested system: Albumin (Bos taurus) (UniProt P02769)
- Sequence (P02769 whole entry, looked up): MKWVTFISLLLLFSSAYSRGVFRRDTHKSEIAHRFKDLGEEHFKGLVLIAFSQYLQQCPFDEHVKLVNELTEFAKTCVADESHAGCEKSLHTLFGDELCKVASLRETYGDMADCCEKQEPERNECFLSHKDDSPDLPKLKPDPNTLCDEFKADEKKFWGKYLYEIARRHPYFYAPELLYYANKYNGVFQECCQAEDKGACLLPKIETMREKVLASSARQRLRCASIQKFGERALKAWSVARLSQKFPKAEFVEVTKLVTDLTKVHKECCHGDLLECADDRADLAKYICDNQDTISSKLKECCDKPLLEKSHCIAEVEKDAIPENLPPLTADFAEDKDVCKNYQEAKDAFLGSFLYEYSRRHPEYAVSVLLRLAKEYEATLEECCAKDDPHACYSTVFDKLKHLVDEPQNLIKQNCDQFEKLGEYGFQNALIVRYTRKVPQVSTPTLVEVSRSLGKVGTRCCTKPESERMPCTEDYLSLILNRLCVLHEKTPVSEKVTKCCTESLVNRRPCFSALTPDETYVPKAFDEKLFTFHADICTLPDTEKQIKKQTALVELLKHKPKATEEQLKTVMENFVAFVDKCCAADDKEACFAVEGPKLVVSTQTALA
- Experiment: bovine serum albumin binders on microarray, profiling panel, artefact control for SMM control protein annotation, biochemical, small-molecule microarray, Alexa647 label, 635/667 nm fluorescence (AID 1118);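 note: score merges 667 nm emission intensity and signal-to-noise per printed compound spot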
- Run conditions: BSA-A647 binding, fluorescence 635 nm, higher = more signal
Below, each entry is listed alongside its reported composite z-score.

# Molecule, Tested system, composite z-score
measured = [
    ("CCCC=C(CCC)[C@@H](NS(=O)(=O)c1ccc(C(F)(F)F)cc1)c1ccc(-c2ccccc2)cc1", "Albumin (Bos taurus) (UniProt P02769)", 0.822),
    ("Cc1cc(C)c(C(O)C2C=CC3C(=O)N(C)C(=O)C3N2N2CCCCC2)c(C)c1 (centres undefined)", "Albumin (Bos taurus) (UniProt P02769)", 0.477),
    ("O=C1C2C=CC(C(O)Cc3ccccc3)N(Nc3ccc([N+](=O)[O-])cc3)C2C(=O)N1c1ccccc1 (centres undefined)", "Albumin (Bos taurus) (UniProt P02769)", 0.944),
    ("O=C1O[C@@H](c2ccccc2)[C@@H](c2ccccc2)N2[C@@H](c3ccc(O)cc3)[C@]3(C(=O)Nc4ccccc43)[C@@H](C(=O)N3CCN(c4ncccn4)CC3)[C@H]12", "Albumin (Bos taurus) (UniProt P02769)", 0.689),
]

---

- System: Wnt5a (protein binding on small-molecule microarray)
- Experiment: Wnt5a binders on small-molecule microarray, primary screen, biophysical, 635/667 nm fluorescence (AID 1142);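 note: fluorescence read at 667 nm with signal to noise per printed feature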
- Run conditions: 635 nm fluorescence, higher = more signal
Attribute measured: composite z-score

# Compound, Attribute measured, Observed
records = [
    ("CC(C)[Si](OCCCNS(=O)(=O)c1ccc(Br)cc1)(C(C)C)C(C)C", "composite z-score", 0.0488),
    ("C=CC[C@@]1(C(=O)N2CCOCC2)N=C(c2ccc(OCCCO)cc2)O[C@@H]1c1ccccc1", "composite z-score", -0.0454),
    ("O=C1O[C@H](c2ccccc2)[C@H](c2ccccc2)N2[C@H]1[C@@H](C(=O)Nc1nc3ccccc3s1)[C@]1(C(=O)Nc3ccc(C#CC4(O)CCCCCC4)cc31)[C@H]2c1ccc(O)cc1", "composite z-score", 0.328),
    ("C=CCN1C(=O)[C@@]2(O[C@@H](CCn3cc([C@H](O)c4ccccc4)nn3)[C@H]([Si](C)(C)c3ccc(OC)cc3)[C@H]2C)c2cc(N3CCOC3=O)ccc21", "composite z-score", -0.0882),
    ("C=CCC(OC(C)=O)[C@@H]1[C@@H](N(Cc2cccc3ccccc23)C(=O)c2ccc(C)cc2)c2cc(OCCCO)ccc2N1C(=O)c1ccc(-c2ccccc2)cc1 (stereo partly specified)", "composite z-score", -0.0459),
    ("COCCCNC(=O)[C@@]1(c2ccc([N+](=O)[O-])cc2)CC(=O)N(C2CCCCC2)[C@@H]1c1ccc(CO)cc1", "composite z-score", -0.155),
]

---

- Experiment: adipocyte viability effects, profiling panel, cell-based, 3T3-L1 adipocytes, calcein-AM fluorescence, 48 h, basal (AID 1163); note: test concentration not given here
- Run conditions: 3T3-L1 adipocytes viability, higher = more signal
# note: boundary value 0.7 maps to N; z-score below it maps to Y

# Compound, Group
data = [
    ("COC(=O)[C@@]1(Cc2ccccc2)[C@H]2c3cc(C(=O)N4CCCC4)n(CCN4CNCC4=O)c3C[C@H]2CN1C(=O)c1ccccc1", "Y"),
    ("C=CCN1C(=O)[C@@]2(O[C@@H](CCn3cc([C@H](O)c4ccccc4)nn3)[C@H]([Si](C)(C)c3ccc(OC)cc3)[C@H]2C)c2cc(N3CCOC3=O)ccc21", "N"),
    ("CC(C)NC(=O)[C@@]1(Cc2ccccc2I)c2ccccc2C(=O)N(C2CCCCC2)[C@H]1c1ccc(CO)cc1", "N"),
    ("CCN1C(C)=C(C(=O)OC)[C@@H](c2ccccc2)N2C(=O)[C@](O)(C(=O)OC)[C@@H](c3ccccc3)C(C(C)=O)=C12", "N"),
    ("C[N+](C)(C)CCCC[C@@H]1NC(=O)[C@H]2C[C@@H](C(=O)NCc3ccc(F)cc3)[C@@H](c3cccc(OCCO)c3)N2C1=O", "N"),
    ("COc1cc(CO)cc(I)c1O[C@H]1C=C(C(=O)NCCO)C[C@@H](NCCc2c[nH]c3ccccc23)[C@@H]1O", "Y"),
    ("COCCCNC(=O)[C@@H]1c2ccccc2C(=O)N(CC23CC4CC(CC(C4)C2)C3)[C@H]1c1ccc(CO)cc1", "N"),
    ("COCCCNC(=O)[C@@]1(Sc2ccc(C)cc2)CC(=O)N(Cc2cc(C(F)(F)F)cc(C(F)(F)F)c2)[C@@H]1c1ccc(CO)cc1I", "N"),
    ("COC(=O)C1=CC(c2ccc(CO)cc2)=CC(C2CC2)N(Cc2sc3ccccc3c2Cl)C=C1C(=O)OC (configuration not stated)", "N"),
    ("C=C(CCCC)C(=O)CC[C@@H](OC(C)=O)c1ccccc1OCCO", "Y"),
    ("O=C(NCC(F)(F)F)[C@@H]1c2ccccc2C(=O)N(Cc2ccccc2Cl)[C@H]1c1ccc(CO)cc1", "Y"),
    ("Cc1ccc(S[C@]2(C(=O)O)CC(=O)N(Cc3ccccc3)[C@@H]2c2ccc(CO)cc2)cc1", "Y"),
    ("CO[C@H]1COC(=O)[C@@H](Cc2ccccc2)NC(=O)[C@@H](C)COC(=O)CC=C[C@@H]1C", "Y"),
    ("COC(=O)Cn1c(C(=O)N2CCCC2)cc2c1C[C@H]1CN(C(=O)c3ccccc3)[C@@](Cc3ccc(OC)cc3)(C(=O)OC)[C@@H]21", "Y"),
    ("CC(C)[Si]1(C(C)C)OCc2cc(C3CC3)nc(-c3ccccc3)c21", "N"),
    ("O=[N+]([O-])c1ccc(C[n+]2ccc3ccc(O)cc3c2)o1", "Y"),
    ("CN1C(=O)C2C=CC(C(O)C3CC=CCC3)N(Nc3ccccc3)C2C1=O (configuration not stated)", "Y"),
    ("CC(C)C[C@@H]1NC(=O)[C@H]2C[C@@H](C(=O)NCCCCCC[N+](C)(C)C)[C@@H](c3ccc(O)cc3)N2C1=O", "Y"),
    ("[N-]=[N+]=NCc1ccccc1C[C@@]1(C(=O)O)N=C(c2ccc(OCCCO)cc2)O[C@@H]1c1ccccc1N=[N+]=[N-]", "Y"),
    ("CO[C@H]1O[C@H](CO)[C@@H](OC(=O)Nc2ccc(Oc3ccccc3)cc2)[C@H](OC(=O)Nc2ccccc2-c2ccccc2)[C@H]1OC(=O)Nc1ccccc1-c1ccccc1", "N"),
]
